Study system: BG505_(SOSIP.664) Env trimer (HIV-1 BG505 (clade A), SOSIP.664 with …, stabilised)
Property label: binding result

| Binder | Obs value |
| --- | --- |
| 561_02_47 (antibody, V domains shown) V domain 1: QRRLFQSGTEVKRPGASVKISCRADDDPYTDDDTFTKYYTHWIRQAPGQRPEWLGVISPHYARPIYSYKFQDRLTLTRDSSLTAVYFELRGLQPDDTGIYFCARDPFGDMYPHYNYHMDVWGGGTTLIVSA V domain 2: EVVLTQSPAILSVSPGDRVILSCKASEGLSSSDLAWYRFKSGQIPTLVIFGASNRARGTPDRFAGSGSGTDFTLTINRVEPEDFATYYCQRYGGTPITFGGGTTLDKK | binds |
| 561_01_33 (antibody, V domains shown) VH: QGRLFQSGTEVKRPGASVKISCRADDDPYTDDDTFTKYYTHWIRQAPGQRPEWLGVISPHFARPIYSYKFRDRLTLTRDSSLTAVYFELRGLQPDDTGIYFCARDPFGDMYPHYNYHMDVWGGGTTVIVSA VL: EVVLTQSPAILSVSPGDRVILSCKASEGLSSSDLAWYRFKGGQIPTLVIFGTSNRARGTPDRFSGSGSGTDFTLTINRVQPEDFATYYCQRYGGTPITFGGGTTLDKK | binds |
| 561_09_23 (antibody, V domains shown) VH: QAHLFQSGAELKRPGASVRISCRADDDPYTDDDTFTKYYTHWIRQAPGQRPEWLGVISPHFARPIYSYKFQDRLTLTRDSSLTAVYLELRSLRLDDTGIYYCARDPFGERAPHYNYHMDVWGAGTTVIVSS VL: EVVLTQSPAILSASPGDRVVLSCRASEGLDSSQLAWYRFKDGQIPRLVLFGVSNRARGTPDRFSGGGSGADFTLTISRVEREDFATYYCQRFGATPITFGGGTRLDMN | binds |

Values were extracted from paper PMC7042716.
